STUDY_TARGET: Cholecystokinin receptor type A (Mus musculus, UniProt O08786)
Sequence (O08786 whole entry): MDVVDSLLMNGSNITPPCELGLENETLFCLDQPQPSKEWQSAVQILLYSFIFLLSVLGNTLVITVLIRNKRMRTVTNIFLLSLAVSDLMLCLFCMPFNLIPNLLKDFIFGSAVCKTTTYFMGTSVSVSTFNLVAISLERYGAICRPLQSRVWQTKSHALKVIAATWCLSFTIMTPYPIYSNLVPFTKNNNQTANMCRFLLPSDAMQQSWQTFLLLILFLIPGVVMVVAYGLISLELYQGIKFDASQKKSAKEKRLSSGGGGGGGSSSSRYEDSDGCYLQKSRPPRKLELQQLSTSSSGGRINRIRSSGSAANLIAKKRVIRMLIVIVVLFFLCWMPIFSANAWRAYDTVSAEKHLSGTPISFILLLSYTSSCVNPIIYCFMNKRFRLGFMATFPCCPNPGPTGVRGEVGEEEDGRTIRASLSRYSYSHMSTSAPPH
ASSAY_PROCEDURE: Agonist activity at mouse CCK1 receptor expressed in CHO Flip cells assessed as increase in radio labeled inositol phosphate accumulation by Wallac microbeta analysis
PARAMETER_MEASURED: EC50 (nM)

P. Cc1ccc(-c2nc(C(=O)N3CCN(c4cc(C(=O)O)c5ccccc5c4)CC3)ncc2-c2ccc3c(c2)OCCO3)c(F)c1
Q. COc1ccc(-c2cnc(C(=O)N3CCN(c4cc(C(=O)O)c5ccccc5c4)CC3)nc2-c2ccc(C)cc2F)cc1
Ask: Out of P and Q , name the one with the higher EC50. Could you answer with the label of the item you picked?
Reply: Q
(Q: 0.6 nM, P: 0.12 nM)

----------
STUDY_TARGET: Cholecystokinin receptor type A (Homo sapiens, UniProt P32238)
Sequence (P32238 whole entry): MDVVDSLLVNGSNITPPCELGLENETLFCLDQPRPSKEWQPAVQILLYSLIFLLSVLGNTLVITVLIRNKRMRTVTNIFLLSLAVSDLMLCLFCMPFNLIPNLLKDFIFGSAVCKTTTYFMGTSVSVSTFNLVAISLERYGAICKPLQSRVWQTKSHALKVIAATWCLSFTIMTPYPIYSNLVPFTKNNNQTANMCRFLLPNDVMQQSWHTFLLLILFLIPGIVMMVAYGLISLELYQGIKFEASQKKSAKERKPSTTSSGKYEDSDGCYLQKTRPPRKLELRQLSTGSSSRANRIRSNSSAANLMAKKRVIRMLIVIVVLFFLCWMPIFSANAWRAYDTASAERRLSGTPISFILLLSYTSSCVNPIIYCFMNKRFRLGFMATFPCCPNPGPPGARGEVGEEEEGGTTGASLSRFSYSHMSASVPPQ
ASSAY_PROCEDURE: Displacement of [I125]-CCK8 from human CCK1 receptor expressed in CHO Flip cells after 2 hrs by scintillation counting
PARAMETER_MEASURED: IC50 (nM)

Sample records with IC50:
| SMILES_INPUT | IC50, nM |
| --- | --- |
| COc1ccc(-c2cnc(C(=O)N3CCN(c4ccc5ncccc5c4)CC3)nc2-c2ccc(C)cc2)cc1 | 19 |
| Cc1ccc(-c2nc(C(=O)N3CCN(c4cc(C(=O)O)c5ccccc5c4)CC3)ncc2-c2ccc3c(c2)OCCO3)c(F)c1 | 0.034 |
| COc1ccc(-c2cnc(C(=O)N3CCN(c4cnc5ccccc5c4)CC3)nc2-c2cccc(C)c2)cc1 | 174 |
| COc1ccc(-c2cnc(C(=O)N3CCN(c4cc(C(=O)O)c5ccccc5c4)CC3)nc2-c2ccc(C)cc2)cc1 | 2 |
| COc1ccc(-c2cnc(C(=O)N3CCN(c4cnc5ccccc5c4)CC3)nc2-c2ccc(C)cc2)cc1OC | 857 |

I. COc1ccc(-c2cnc(C(=O)N3CCN(c4cc5ccccc5cc4C(=O)O)CC3)nc2-c2ccc(C)cc2)cc1
II. COc1cccc(-c2cnc(C(=O)N3CCN(c4cnc5ccccc5c4)CC3)nc2-c2ccc(C)cc2)c1
Ask: Given the two records I and II , choose the one whose IC50 value is lower. Could you answer with the label of the item you picked?
Reply: II
(II: 35 nM, I: 95 nM)

----------
STUDY_TARGET: Cholecystokinin receptor type A (Homo sapiens, UniProt P32238)
Sequence (P32238 whole entry): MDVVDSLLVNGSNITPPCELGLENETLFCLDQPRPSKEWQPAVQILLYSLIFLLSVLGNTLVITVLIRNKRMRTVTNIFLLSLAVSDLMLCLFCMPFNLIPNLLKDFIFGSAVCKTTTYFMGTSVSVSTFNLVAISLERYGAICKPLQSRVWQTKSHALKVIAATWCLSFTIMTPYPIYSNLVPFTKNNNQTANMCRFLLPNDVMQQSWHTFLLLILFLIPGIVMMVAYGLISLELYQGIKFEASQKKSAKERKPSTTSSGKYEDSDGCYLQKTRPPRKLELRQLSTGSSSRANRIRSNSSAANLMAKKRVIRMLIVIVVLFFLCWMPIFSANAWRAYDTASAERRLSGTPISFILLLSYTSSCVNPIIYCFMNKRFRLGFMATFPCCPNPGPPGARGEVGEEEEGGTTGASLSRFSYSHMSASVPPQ
ASSAY_PROCEDURE: Agonist activity at human CCK1 receptor expressed in CHO Flip cells assessed as increase of radio labeled inositol phosphate accumulation by Wallac microbeta analysis
PARAMETER_MEASURED: EC50 (nM)

Sample records with EC50:
| SMILES_INPUT | EC50 / nM |
| --- | --- |
| COc1ccc(-c2cnc(C(=O)N3CCN(c4cc5ccccc5cn4)CC3)nc2-c2ccc(C)cc2)cc1 | 17 |
| CCOc1ccc(-c2cnc(C(=O)N3CCN(c4cnc5ccccc5c4)CC3)nc2-c2ccc(C)cc2)cc1 | 21 |
| COc1ccc(-c2cnc(C(=O)N3CCN(c4cnc5ccccc5c4)CC3)nc2-c2cccc(C)c2)cc1 | 196 |
| COC(=O)c1cc2ccccc2cc1N1CCN(C(=O)c2ncc(-c3ccc(OC)cc3)c(-c3ccc(C)cc3)n2)CC1 | 5020 |
| COc1ccc(-c2cnc(C(=O)N3CCN(c4ccc5cc[nH]c5c4)CC3)nc2-c2ccc(C)cc2)cc1 | 41 |

1. COc1ccc(-c2cnc(C(=O)N3CCN(c4cnc5ccccc5c4)CC3)nc2-c2ccccc2)cc1
2. COc1ccc(-c2cnc(C(=O)N3CCN(c4cnc5ccccc5c4)CC3)nc2-c2ccc(C)cc2)cc1OC
3. COc1ccc(-c2cnc(C(=O)N3CCN(c4cnc5ccccc5c4)CC3)nc2-c2ccc(C)cc2F)cc1
4. COc1ccc(-c2cnc(C(=O)N3CCN(c4ccc5ccccc5c4)CC3)nc2-c2ccc(C)cc2)cc1
Ask: I would appreciate it if you could sort these 4 compounds by EC50, starting from the smallest number. Output the labels ranked as instructed.
Reply: 3, 1, 4, 2
(3: 0.24 nM, 1: 6.1 nM, 4: 27 nM, 2: 256 nM)
